- run.description: Water solubility / hydrophobicity of conjugates (feasibility of intranasal or intravenous dosing)
- reported.conditions: do not dissolve in a practical amount of water for intravenous dosing at oral equivalent doses

| molecule | hydrophobic character (in words) |
| --- | --- |
| COc1ccc2c3c1OC1C(OC(=O)c4ccc5c(c4)OCO5)=CC[C@H]4[C@@H](C2)N(C)CC[C@]314 (stereo partly drawn) [Piperonylate-HC] | hydrophobic |
| COc1ccc2c3c1OC1C(OC(=O)c4ccccc4)=CCC4C(C2)N(C)CCC314 (stereo not drawn) [Bz-HC, benzoate-hydrocodone] | hydrophobic |
| COc1ccc(C(=O)OC2=CC[C@H]3[C@H]4Cc5ccc(OC)c6c5[C@@]3(CCN4C)C2O6)cc1O (stereo partly drawn) [3-OH-4-MeO-Bz-HC] | hydrophobic |
